Data provenance: patent US20220402867A1

Test system: human PBMC (Th17 cells)
Assay: Th17 differentiation and IL-17 secretion in human PBMC
Type: cell-based
Details: maximum activation rate, IL-17 ELISA after 48 hours
Recorded Emax values for a group of compounds are listed next.
Readout label: Emax (%)

>>> reported_result("CCS(=O)(=O)c1ccc(C(COC)C(=O)Nc2cc(Cl)c(-c3ccc(S(=O)(=O)C4CC4)cc3)c(Cl)c2)cc1 (stereo not shown) [Example 16]")
202
>>> reported_result("CS(=O)(=O)c1ccc(-c2c(Cl)cc(NC(=O)Cc3ccc(S(=O)(=O)CC4CC4)cc3)cc2Cl)cc1")
295
>>> reported_result("COCC(C(=O)Nc1cc(Cl)c(-c2ccc(S(=O)(=O)C3CC3)cc2)c(Cl)c1)c1ccc(S(C)(=O)=O)cc1 (stereo not shown) [Example 20]")
228
>>> reported_result("CCS(=O)(=O)c1ccc(-c2c(Cl)cc(NC(=O)C(COC)c3ccc(S(=O)(=O)CC)cc3)cc2Cl)cc1 (stereo not shown)")
139
>>> reported_result("COCC(C(=O)Nc1cc(Cl)c(-c2ccc(S(C)(=O)=O)cc2)c(Cl)c1)c1ccc(S(=O)(=O)CC2CC2)cc1 (stereo not shown)")
193
>>> reported_result("CS(=O)(=O)c1ccc(CC(=O)Nc2cc(Cl)c(-c3ccc(S(=O)(=O)C4CC4)cc3)c(Cl)c2)cc1")
149
>>> reported_result("CCS(=O)(=O)c1ccc(C(COC)C(=O)Nc2cc(Cl)c(-c3ccc(S(C)(=O)=O)cc3)c(Cl)c2)cc1 (stereo not shown)")
197
>>> reported_result("CCS(=O)(=O)c1ccc(CC(=O)Nc2cc(Cl)c(-c3ccc(S(=O)(=O)C4CC4)cc3)c(Cl)c2)nc1")
297
>>> reported_result("COCC(C(=O)Nc1ccc(-c2ccc(S(=O)(=O)C3CC3)cc2)c(C(F)(F)F)c1)c1ccc(S(C)(=O)=O)cc1 (single isomer, unassigned)")
265
>>> reported_result("CCS(=O)(=O)c1ccc(CC(=O)Nc2cc(Cl)c(-c3ccc(S(C)(=O)=O)cc3)c(Cl)c2)cc1")
138
